Sourced from patent US20230174641A1

system.tested: T1, human ACTH 18-39 (human)
T1 construct: also called CLIP; CLIP (ACTH 18-39)
T1 peptide: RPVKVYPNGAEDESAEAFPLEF
measurement.protocol: SPR ProteOn, antibody immobilised
measured.endpoint: koff

Completed entries (count: 3):
- binder: "Ab9 (antibody, human IgG1, kappa, N297A, V domains shown, rabbit/human chimeric antibody, made in HEK-293) VH: QSVEESGGRLVTPGTPLTLTCTVSGFSLNSYAMSWVRQAPGEGLEWIGIISDSGRTYYASWAKGRFTISKTSTTVDLKITSPTTEDTATYFCAREPEYGYDDYGDWVSDLWGPGTLVTVSS VL: DVVMTQTPASVEAAVGGTVTIKCQASQSISSYLSWYQQKPGQPPKLLIYRASTLASGVPSRFKGSGSGTQFTLTISDLECADAATYYCQSYYYSSSITYRNAFGGGTEVVVKR"
  koff: "> 0.1 s⁻¹"
- binder: "Ab5 (antibody, human IgG1, kappa, N297A, V domains shown, rabbit/human chimeric antibody, made in HEK-293) VH: QSVEESGGRLVTPGTPLTLTCTVSGFSLSSYAMSWVRQAPGEGLEWIGIISDSGSTYYASWAKGRFTISKTSTTVDLKITSPTTEDTATYFCAREPEYGYDDYGDWVSDLWGQGTLVTVSS VL: DIVMTQTPASVSEPVGGTVTIKCQASQSISSYLSWYQQKPGQPPKLLIYRASTLASGVPSRFKGSGSGTQFTLTISDLECADAATYYCQSYYYSSSITYRNAFGGGTEVVVKR"
  koff: "> 0.1 s⁻¹"
- binder: "Ab7 (antibody, human IgG1, kappa, N297A, V domains shown, rabbit/human chimeric antibody, made in HEK-293) VH: QSVEESGGRLVTPGTPLTLTCTVSGFSLSSYAMSWVRQAPGEGLEWIGIISDSGSTYYASWAKGRFTISKTSTTVDLRITSPTTEDTATYFCAREPEYGYDDYGDWVSDLWGQGTLVTVSS VL: DIVMTQTPASVEAAVGGTVTIKCQASQSISDYLSWYQQKPGQPPKLLIYRASTLASGVPSRFKGSGSGTQFTLTISDLECADAATYYCQSYYYSSSITYRNAFGGGTEVVVKR"
  koff: "> 0.1 s⁻¹"

Consider the additional binder presented here.
stdin: Recorded koff of Ab6 (antibody, human IgG1, kappa, N297A, V domains shown, rabbit/human chimeric antibody, made in HEK-293) VH: QSVEESGGRLVTPGTPLTLTCTVSGFSLTDYAMSWVRQAPGEGLEWIGIISDSGSTYYASWAKGRFTFSKTSTTVDLRITSPTTEDTATYFCAREPEYGYDEYGDWVSDLWGPGTLVTVSS VL: DIVMTQTPASVEAAVGGAVTIKCQATQSIGNNLAWYQQKPGQPPKLLIYRASTLASGVPSRFKGSGSGTEFTLTISDLECADAATYYCQSYYYSSSITYHNAFGGGTEVVVKR , please.
stdout: > 0.1 s⁻¹
